Value source: patent US20250059179A1

target: His-tagged KRAS G12D protein (Homo sapiens, UniProt P01116, G12D); experiment: KRAS G12D TR-FRET Assay; conditions: biotinylated KRPep-2d substrate, 10 μM GDP
Sequence (P01116 1-188 isoform P01116-2 G12D): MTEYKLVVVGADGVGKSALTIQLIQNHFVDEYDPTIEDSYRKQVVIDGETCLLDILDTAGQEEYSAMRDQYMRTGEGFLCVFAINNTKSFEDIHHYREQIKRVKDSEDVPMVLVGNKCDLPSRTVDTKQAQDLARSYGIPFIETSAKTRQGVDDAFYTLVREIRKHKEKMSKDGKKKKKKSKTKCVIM
recordedMetric: pIC50
Recall that pIC50 is obtained by taking minus log10 of the concentration measured in molar.

The examples below pair each entry with its known result.
N#Cc1c(OCC23CCCN2C[C@H](F)C3)nc2c(F)c(-c3ccc(F)c4sc(N)nc34)c(Cl)cc2c1N1[C@@H]2CC[C@H]1CNC2 (stereo partly drawn) | 6.76
Nc1nc2c(-c3c(Cl)cc4c(N5CCCNCC5)nc(OC[C@@]56CCCN5C[C@H](F)C6)nc4c3F)ccc(F)c2s1 | 8.10

Then there is this compound:
pIC50 reading for Nc1nc2c(-c3c(Cl)cc4c(N5CCCNC(=O)C5)nc(OCC56CCCN5CCC6)nc4c3F)ccc(F)c2s1 : 7.74

* * *

biological target: His-tagged KRAS G12D protein (Homo sapiens, UniProt P01116, G12D); test: KRAS G12D TR-FRET Assay; settings: biotinylated KRPep-2d substrate, 10 μM GDP;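 also: europium anti-His antibody paired with streptavidin-d2 as FRET partners, initial 30 min incubation, then peptide 1 h and detection reagents 1 h, all at room temperature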
# note: boundary value 70 nM maps to n; IC50 below it maps to y

Nc1nc2c(-c3c(Cl)cc4c(N5CCNCC5)nc(OCC56CCC(CC5)N6)nc4c3F)cccc2s1 | n
Nc1nc2c(-c3c(Cl)cc4c(N5[C@@H]6CC[C@H]5CNC6)nc(OCC56CCCN5CC(F)(F)C6)nc4c3F)ccc(F)c2s1 (stereo partly drawn) | y
Cc1cc2c(N3CCNCC3)nc(OC[C@@H]3CCCN3C)nc2c(F)c1-c1cccc2sc(N)nc12 | n
Nc1nc2c(-c3c(Cl)cc4c(N5C[C@H]6CC[C@@H](C5)N6)cc(OC[C@@]56CCCN5C[C@H](F)C6)nc4c3F)ccc(F)c2s1 | y
CN1CCC[C@H]1COc1nc(N2C[C@@H]3CC[C@H]2CN3)c2cc(Cl)c(-c3cccc4sc(N)nc34)c(F)c2n1 | y
C=Cc1cc2c(N3[C@@H]4CC[C@H]3CNC4)nc(OC[C@@]34CCCN3C[C@H](F)C4)nc2c(F)c1-c1ccc(F)c2sc(N)nc12 | y

Determine if CC1CNCC=C1c1nc(OC[C@@H]2CCCN2C)nc2c(F)c(-c3cccc4sc(N)nc34)c(Cl)cc12 (single isomer, unassigned) [Example 146] shows IC50 strictly lower than 70 nM. n

Determine if CN1CCC[C@H]1COc1nc(N2CCNC[C@@H]2CO)c2cc(Cl)c(-c3cccc4sc(N)nc34)c(F)c2n1 shows IC50 strictly lower than 70 nM. n

* * *

target: GDP-bound KRAS protein (aa 1-169), containing both G12D and C118A amino acid substitutions (Homo sapiens, UniProt P01116, C118A/G12D); experiment: KRAS G12D Coupled Nucleotide Exchange Assay; type: biochemical; conditions: 2 h compound pre-incubation; SOS-mediated nucleotide exchange, cRAF AlphaScreen readout
Sequence (P01116 1-169 isoform P01116-2 G12D/C118A): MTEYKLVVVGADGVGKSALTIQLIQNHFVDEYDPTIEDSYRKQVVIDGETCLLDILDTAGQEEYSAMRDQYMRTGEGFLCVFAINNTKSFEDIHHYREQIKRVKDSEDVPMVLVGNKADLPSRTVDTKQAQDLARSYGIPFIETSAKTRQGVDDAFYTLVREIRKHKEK
The reader will find reported Avg 2 h Coupled Exchange IC50 values listed item by item below.
Number in nM, nothing else.

Nc1nc2c(-c3c(Cl)cc4c(N5CCNCC5)nc(N5CC6(CC(O)c7nccn76)C5)nc4c3F)cccc2s1 (stereo not shown) [Example 108] | 1970
CN1CCC[C@H]1CCOc1nc(N2C[C@H]3C[C@@H](C2)N3)c2cc(Cl)c(-c3ccc(F)c4sc(N)nc34)c(F)c2n1 [Example 11] | 11
CCN1CCN(C2CN(c3nc(N4CCNCC4)c4cc(Cl)c(-c5cccc6sc(N)nc56)c(F)c4n3)C2)CC1 [Example 112] | 2460
CNC1CN(c2nc(N3CCNCC3)c3cc(Cl)c(-c4cccc5sc(N)nc45)c(F)c3n2)C1 [Example 91] | 1013
CN1CCC[C@H]1COc1nc(N2C[C@@H]3CC[C@H]2CN3)c2cc(Cl)c(-c3cccc4sc(N)nc34)c(F)c2n1 [Example 15] | 14
CN1CCC[C@H]1COc1nc(N2CCCNCCC2)c2cc(Cl)c(-c3cccc4sc(N)nc34)c(F)c2n1 [Example 35] | 65
CN1CCC[C@H]1COc1nc(N2CCNCC2)c2cc(Cl)c(-c3ccc(C(F)(F)F)c4sc(N)nc34)c(F)c2n1 [Example 131] | 735
Nc1nc2c(-c3c(Cl)cc4c(N5CCNCC5)nc(N5CC6(CCOCC(=O)N6)C5)nc4c3F)cccc2s1 [Example 105] | 1850
CN(C1COC1)C1CN(c2nc(N3CCNCC3)c3cc(Cl)c(-c4cccc5sc(N)nc45)c(F)c3n2)C1 [Example 100] | 1500
Nc1nc2c(-c3c(Cl)cc4c(N5CCNCC5)nc(N5CC(N6CC(O)C6)C5)nc4c3F)cccc2s1 [Example 85] | 633

Avg 2 h Coupled Exchange IC50 reading for CCc1cc2c(N3CCNCC3)nc(OC[C@@H]3CCCN3C)nc2c(F)c1-c1cccc2sc(N)nc12 [Example 152] : 95

Avg 2 h Coupled Exchange IC50 reading for Nc1nc2c(-c3c(Cl)cc4c(N5CCNCC5)nc(N5CC6CNC(C6)C5)nc4c3F)cccc2s1 (stereo not shown) [Example 114] : 2770

Avg 2 h Coupled Exchange IC50 reading for Nc1nc2c(-c3c(Cl)cc4c(N5C[C@H]6C[C@@H](C5)N6)nc(OC[C@@]56CCCN5C[C@H](F)C6)nc4c3F)ccc(F)c2s1 [Example 6] : 5

* * *

biological target: GDP-bound KRAS protein (aa 1-169), containing both G12D and C118A amino acid substitutions (Homo sapiens, UniProt P01116, C118A/G12D); assay: KRAS G12D Coupled Nucleotide Exchange Assay; assay type: biochemical; conditions: 2 h compound pre-incubation; SOS-mediated nucleotide exchange, cRAF AlphaScreen readout;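 also: IC50 obtained by fitting the AlphaScreen signal with a four-parameter logistic curve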
The reader will find reported Avg 2 h Coupled Exchange IC50 values listed item by item below.
Number in nM, nothing else.

Avg 2 h Coupled Exchange IC50 reading for Nc1nc2c(-c3c(Cl)cc4c(N5CC6CNCC5C6)nc(OC[C@@]56CCCN5C[C@H](F)C6)nc4c3F)ccc(F)c2s1 (single isomer, unassigned) [Example 29] : 13

Avg 2 h Coupled Exchange IC50 reading for CCC1(N)CN(c2nc(N3CCNCC3)c3cc(Cl)c(-c4cccc5sc(N)nc45)c(F)c3n2)C1 : 437

Avg 2 h Coupled Exchange IC50 reading for Nc1nc2c(-c3c(Cl)cc4c(N5CCNCC5)nc(N5CC(N)C5)nc4c3F)cccc2s1 : 1251

Avg 2 h Coupled Exchange IC50 reading for Nc1nc2c(-c3c(Cl)cc4c(N5CCNCC5)nc(N[C@H]5CCc6ncsc6C5)nc4c3F)cccc2s1 : 2180

Avg 2 h Coupled Exchange IC50 reading for Nc1nc2c(-c3c(Cl)cc4c(N5[C@@H]6CNC[C@H]5COC6)nc(OCC56CCCN5CC(F)(F)C6)nc4c3F)ccc(F)c2s1 (stereo partly drawn) : 10

Avg 2 h Coupled Exchange IC50 reading for CN(C)C1CCN(c2nc(N3CCNCC3)c3cc(Cl)c(-c4cccc5sc(N)nc45)c(F)c3n2)C1 (stereo not drawn) : 1140

Avg 2 h Coupled Exchange IC50 reading for CC1=C(c2nc(OC[C@@H]3CCCN3C)nc3c(F)c(-c4cccc5sc(N)nc45)c(Cl)cc23)CCNC1 : 3550

Avg 2 h Coupled Exchange IC50 reading for Nc1nc2c(-c3c(Cl)cc4c(N5C[C@H]6COC[C@@H](C5)N6)nc(OC[C@@]56CCCN5C[C@H](F)C6)nc4c3F)ccc(F)c2s1 : 12

Avg 2 h Coupled Exchange IC50 reading for CN1C[C@H](F)C[C@H]1COc1nc(N2C[C@H]3COC[C@@H](C2)N3)c2cc(Cl)c(-c3ccc(F)c4sc(N)nc34)c(F)c2n1 : 65

Avg 2 h Coupled Exchange IC50 reading for CN1C[C@H](F)C[C@H]1COc1nc(N2C[C@H]3C[C@@H](C2)N3)c2cc(Cl)c(-c3ccc(F)c4sc(N)nc34)c(F)c2n1 : 6

Avg 2 h Coupled Exchange IC50 reading for CN1C[C@H](F)C[C@H]1COc1nc(N2[C@@H]3CC[C@H]2CNC3)c2cc(Cl)c(-c3ccc(F)c4sc(N)nc34)c(F)c2n1 : 5

Avg 2 h Coupled Exchange IC50 reading for Nc1nc2c(-c3c(Cl)cc4c(N5CCNCC5)nc(N5C[C@@H]6NCC[C@@H]65)nc4c3F)cccc2s1 : 2860

Avg 2 h Coupled Exchange IC50 reading for CN1CCC[C@H]1COc1nc(N2CCNCC2)c2cc(C#N)c(-c3cccc4sc(N)nc34)c(F)c2n1 : 189

Avg 2 h Coupled Exchange IC50 reading for Nc1nc2c(-c3c(Cl)cc4c(N5CC6CNCC5C6)nc(OC[C@@]56CCCN5C[C@H](F)C6)nc4c3F)ccc(F)c2s1 (single isomer, unassigned) [Example 30] : 15

Avg 2 h Coupled Exchange IC50 reading for Nc1nc2c(-c3c(F)cc4c(N5C[C@H]6CC[C@@H](C5)N6)nc(OC[C@@]56CCCN5C[C@H](F)C6)nc4c3F)ccc(F)c2s1 : 2
